- studyTarget: 5-hydroxytryptamine receptor 3A (Homo sapiens, UniProt P46098)
- Sequence (P46098 whole entry): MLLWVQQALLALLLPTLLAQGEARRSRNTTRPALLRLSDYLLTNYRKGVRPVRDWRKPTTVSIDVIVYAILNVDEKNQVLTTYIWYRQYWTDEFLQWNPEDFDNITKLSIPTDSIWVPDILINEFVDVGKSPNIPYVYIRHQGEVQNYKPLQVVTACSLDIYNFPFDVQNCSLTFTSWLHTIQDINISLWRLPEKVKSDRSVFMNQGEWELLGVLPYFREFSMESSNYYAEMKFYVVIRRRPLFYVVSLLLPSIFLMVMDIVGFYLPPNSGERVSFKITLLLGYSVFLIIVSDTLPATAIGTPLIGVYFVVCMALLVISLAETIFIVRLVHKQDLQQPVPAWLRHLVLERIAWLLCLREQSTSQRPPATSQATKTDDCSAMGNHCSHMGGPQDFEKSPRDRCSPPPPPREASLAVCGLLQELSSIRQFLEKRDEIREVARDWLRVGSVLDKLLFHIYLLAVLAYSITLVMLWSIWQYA
pIC50: −log10 of the molar value.
assayReadout: pIC50

Query :: Form field: pIC50 recorded for Fc1ccc(-c2cncc(CNC[C@H]3CCc4ccccc4O3)c2)cc1 [SARIZOTAN] with 5-hydroxytryptamine receptor 3A (Homo sapiens, UniProt P46098) (enter value)
Result :: > 8.22

* * *

- studyTarget: Amine oxidase [flavin-containing] B (Homo sapiens, UniProt P27338)
- Sequence (P27338 whole entry): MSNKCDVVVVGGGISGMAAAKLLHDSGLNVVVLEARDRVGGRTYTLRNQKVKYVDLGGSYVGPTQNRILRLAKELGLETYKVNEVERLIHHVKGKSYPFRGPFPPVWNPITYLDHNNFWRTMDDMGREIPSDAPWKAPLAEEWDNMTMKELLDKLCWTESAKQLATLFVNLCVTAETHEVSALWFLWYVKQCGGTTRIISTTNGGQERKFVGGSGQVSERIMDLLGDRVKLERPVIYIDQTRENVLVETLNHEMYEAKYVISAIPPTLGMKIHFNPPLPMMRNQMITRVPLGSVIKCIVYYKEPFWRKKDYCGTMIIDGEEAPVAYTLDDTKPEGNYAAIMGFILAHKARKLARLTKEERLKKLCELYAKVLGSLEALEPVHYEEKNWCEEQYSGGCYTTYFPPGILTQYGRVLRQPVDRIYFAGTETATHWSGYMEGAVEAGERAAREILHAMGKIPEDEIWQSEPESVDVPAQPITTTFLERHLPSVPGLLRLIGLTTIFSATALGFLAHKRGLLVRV
Would you mind telling me the reported IC50 of each entry?
Your reply should be a number followed by the unit it is expressed in.

Before answering, review these 2 worked examples.
Query :: Consider the compound C#CCN(C)C(C)Cc1cccc(OC(=O)N(C)CCCCCC)c1 (stereo not drawn) and give its measured IC50.
Result :: 1.5 µM

Query :: Name the recorded IC50 for C#CCN[C@@H]1CCc2cc(Cl)c(OC(=O)N(C)CCC)cc21 .
Result :: 32 µM

Turning now to a further record.
Query :: Can you share its IC50? I mean this compound: C#CCN[C@@H]1CCc2ccc(OC(=O)N(C)CC)cc21
Result :: 120 µM

* * *

Parameter IC50, tested on Acetylcholinesterase (Homo sapiens, UniProt P22303), listed per item.
Sequence (P22303 whole entry): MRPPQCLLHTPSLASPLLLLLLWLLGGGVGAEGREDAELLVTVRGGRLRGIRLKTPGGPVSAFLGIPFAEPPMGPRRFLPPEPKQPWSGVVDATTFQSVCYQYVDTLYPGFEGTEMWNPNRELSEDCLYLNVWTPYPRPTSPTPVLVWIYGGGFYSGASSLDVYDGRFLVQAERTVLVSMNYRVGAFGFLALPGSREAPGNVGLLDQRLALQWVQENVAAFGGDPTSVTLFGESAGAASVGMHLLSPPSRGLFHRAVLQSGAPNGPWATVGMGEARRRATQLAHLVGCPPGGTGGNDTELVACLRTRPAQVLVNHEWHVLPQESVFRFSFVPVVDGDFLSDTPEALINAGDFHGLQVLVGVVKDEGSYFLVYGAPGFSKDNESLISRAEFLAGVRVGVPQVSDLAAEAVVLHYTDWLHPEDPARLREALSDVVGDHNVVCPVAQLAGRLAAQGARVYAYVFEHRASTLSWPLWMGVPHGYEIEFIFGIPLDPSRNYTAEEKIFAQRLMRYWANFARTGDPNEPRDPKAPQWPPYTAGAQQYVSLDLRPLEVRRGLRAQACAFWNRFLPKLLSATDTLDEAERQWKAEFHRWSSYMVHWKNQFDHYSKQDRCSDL
Numbers only, in nM.

Example entries begin here.
Query :: Recorded IC50 for O=C(CCCCC1CCSS1)NCCCNc1c2c(nc3cc(Cl)ccc13)CCCC2 (centres undefined) [LIPOCRINE] , please?
Result :: 0.25

Query :: Any idea what its IC50 is? The compound is O=C(CCc1c[nH]c2ccccc12)NCCCCCCNc1c2c(nc3cc(Cl)ccc13)CCCC2
Result :: 0.02

Query :: Consider the compound shown here: Clc1cccc(Cl)c1CO/N=C/c1cc[n+](CCC[n+]2ccc(/C=N/OCc3c(Cl)cccc3Cl)cc2)cc1 What is its recorded IC50?
Result :: 6000

List IC50 for every entry below, keeping the order given.
1. COc1ccccc1CNCCCNCCCNCCC[n+]1c(-c2ccccc2)c2cc(N)ccc2c2ccc(N)cc21
2. C#CCN[C@@H]1CCc2cc(Cl)c(OC(=O)N(C)CCC)cc21
3. Clc1cccc(Cl)c1CO/N=C/c1cc[n+](CCCc2ccccc2)cc1
4. O=C(CCc1c[nH]c2ccccc12)NCCCCCCCNc1c2c(nc3cc(Cl)ccc13)CCCC2
5. C#CCN[C@@H]1CCc2ccc(OC(=O)N(C)CC)cc21 [LADOSTIGIL]
6. c1ccc2c(NCCc3ccc(OCCCN4CCCCC4)cc3)c3c(nc2c1)CCCC3

Result ::
1. 952
2. 43900
3. 180
4. 0.06
5. 52400
6. 2.6
